Hey, just so you know, these numbers are from the RNAGym collection of RNA variant scans (doi:10.1021/acssynbio.7b00057).

B1: Pistol ribozyme (parent)
chain: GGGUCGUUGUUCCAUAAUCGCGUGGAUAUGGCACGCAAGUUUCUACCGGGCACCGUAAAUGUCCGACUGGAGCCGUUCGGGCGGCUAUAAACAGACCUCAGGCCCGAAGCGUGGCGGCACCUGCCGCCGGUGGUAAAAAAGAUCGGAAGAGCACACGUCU

Variants of: B1
Test: aptazyme ON/OFF ratio, guanine; higher = stronger switching; co-transcriptional cleavage with and without guanine
# aptazyme ON/OFF ratio values compiled below
API note: the answer field is a bare number with no unit suffix.

The following variants have reported results that may help.
U7C U8G G9C U10C U11A C12G	1.07
U7C U8A G9A U10G U11A C13G	1.05
U8A G9U U10G U11C C12A C13G	1.03

Task item: Give the reported aptazyme ON/OFF ratio for this variant. U7A U8C G9C C12U C13U
Reply: 1.14

Task item: Give the reported aptazyme ON/OFF ratio for this variant. U7C G9C U10G U11G C12G C13U
Reply: 1.09

Task item: Give the reported aptazyme ON/OFF ratio for this variant. U7G U8A G9C U10A U11C C13G
Reply: 1.04

Task item: Give the reported aptazyme ON/OFF ratio for this variant. U7C U8A G9C U10C U11G C12G C13U
Reply: 1.07

Task item: Give the reported aptazyme ON/OFF ratio for this variant. U7G U8A U10A U11A C12U
Reply: 1.12

Task item: Give the reported aptazyme ON/OFF ratio for this variant. U8G U10A U11A C12G C13A
Reply: 1.12

Task item: Give the reported aptazyme ON/OFF ratio for this variant. U8C U10A U11A C12U
Reply: 1.22

Task item: Give the reported aptazyme ON/OFF ratio for this variant. U7G G9C U10C U11G C13U
Reply: 1.27

Task item: Give the reported aptazyme ON/OFF ratio for this variant. U7C U8G G9U U10C U11G C12U C13U
Reply: 1.41

Task item: Give the reported aptazyme ON/OFF ratio for this variant. U8G U11C C12G C13A
Reply: 1.25

Task item: Give the reported aptazyme ON/OFF ratio for this variant. U7C U8A G9C U10C C12A C13U
Reply: 1.06

Task item: Give the reported aptazyme ON/OFF ratio for this variant. U8G G9C U10G U11A C12G C13U
Reply: 1.2
